Test: Bioavailability in mouse
Assay type: ADME, organism-based
Conditions: in vivo
reportedProperty: bioavailability

Q: Bench note: what bioavailability did C=CC(=O)Nc1cccc(CNc2cc(Nc3ccccc3)ncc2C(N)=O)c1 show?
Result: < 30%

* * *

Molecular target: Tyrosine-protein kinase BTK (Homo sapiens, UniProt Q06187)
Sequence (Q06187 whole entry): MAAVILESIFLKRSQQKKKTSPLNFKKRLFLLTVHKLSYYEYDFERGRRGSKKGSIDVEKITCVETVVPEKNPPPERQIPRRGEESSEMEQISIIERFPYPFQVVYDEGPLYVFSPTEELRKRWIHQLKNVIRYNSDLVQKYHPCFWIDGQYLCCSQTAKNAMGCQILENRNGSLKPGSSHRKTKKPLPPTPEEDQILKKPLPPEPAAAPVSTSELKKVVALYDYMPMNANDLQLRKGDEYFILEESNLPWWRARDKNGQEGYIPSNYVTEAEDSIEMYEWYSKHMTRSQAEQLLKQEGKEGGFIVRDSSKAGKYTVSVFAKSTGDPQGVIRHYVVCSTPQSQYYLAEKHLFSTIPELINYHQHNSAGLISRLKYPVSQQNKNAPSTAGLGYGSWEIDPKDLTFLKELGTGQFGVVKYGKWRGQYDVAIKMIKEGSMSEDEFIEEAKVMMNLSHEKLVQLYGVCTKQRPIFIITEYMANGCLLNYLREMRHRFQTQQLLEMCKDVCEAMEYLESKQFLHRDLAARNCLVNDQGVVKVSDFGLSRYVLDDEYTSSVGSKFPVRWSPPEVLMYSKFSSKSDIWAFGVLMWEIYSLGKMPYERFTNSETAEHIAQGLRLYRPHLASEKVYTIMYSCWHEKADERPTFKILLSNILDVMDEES
Experiment: Inhibition of full length human His-tagged BTK expressed in baculovirus expression system using GEEPLYWSFPAKKK-NH2 as substrate measured after 10 mins in presence of ATP by topcount scintillation counting analysis
pIC50: −log10 of the molar value.
reportedProperty: pIC50

Q: Bench note: what pIC50 did C=CC(=O)Nc1cccc(CNc2cc(Nc3ccccc3)ncc2C(N)=O)c1 show?
Result: < 5.60
